Where do these numbers come from? They come from patent US20190152992A1.

# TARGET OR TEST SYSTEM: human alpha2C receptors (Homo sapiens, UniProt P18825)
# Sequence (P18825 1-462): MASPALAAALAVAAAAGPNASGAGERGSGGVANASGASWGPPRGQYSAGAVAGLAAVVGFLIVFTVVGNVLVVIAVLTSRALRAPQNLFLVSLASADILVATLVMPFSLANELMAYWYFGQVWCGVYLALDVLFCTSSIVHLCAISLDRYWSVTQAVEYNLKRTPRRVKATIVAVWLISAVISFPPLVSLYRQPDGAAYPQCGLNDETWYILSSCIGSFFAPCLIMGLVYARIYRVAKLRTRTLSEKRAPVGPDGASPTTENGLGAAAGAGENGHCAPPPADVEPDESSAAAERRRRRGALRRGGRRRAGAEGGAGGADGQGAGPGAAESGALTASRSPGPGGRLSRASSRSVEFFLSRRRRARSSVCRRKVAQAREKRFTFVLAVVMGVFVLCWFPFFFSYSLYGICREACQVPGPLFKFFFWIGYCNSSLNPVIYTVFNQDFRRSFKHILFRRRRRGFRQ
# METHOD: Determination of alpha2C antagonistic activity in vitro (FLIPR calcium assay)
pIC50: −log10 of the molar value. Where a name gives a salt, the structure may show the parent alone.
The threshold is inclusive: pIC50 of exactly 9 counts as true (1); values below receive false (0).

O=C1c2cccnc2CN1[C@H]1CCCN(C[C@H]2COc3ccccc3O2)C1 :: false (0)
CC1(C)CCN([C@H]2CCCN(C[C@H]3COc4ccccc4O3)C2)C1=O :: false (0)
CC1CCN([C@H]2CCCN(C[C@H]3COc4ccccc4O3)C2)C1=O (single isomer, unassigned; diastereomer 1) [example 98] :: false (0)
O=C1CN(C2CCCC2)C(=O)N1[C@H]1CCCN(C[C@H]2COc3ccccc3O2)C1 :: true (1)
O=C1NC(c2ccccc2)C(=O)N1[C@H]1CCCN(C[C@H]2COc3ccccc3O2)C1 (stereo partly drawn) :: true (1)
O=C1CN(C2CC(F)(F)C2)C(=O)N1[C@H]1CCCN(C[C@H]2COc3ccccc3O2)C1 :: false (0)
O=C1Cc2ccccc2N1[C@H]1CCCN(C[C@H]2COc3ccccc3O2)C1 :: false (0)
CCN1CC(=O)N([C@H]2CCCN(C[C@H]3COc4ccccc4O3)C2)C1=O :: false (0)
CC(C)N1C(=O)C(=O)N([C@H]2CCCN(C[C@H]3COc4ccccc4O3)C2)C1=O :: true (1)
CC(C)N1CC(=O)N([C@H]2CCCN(C[C@H]3COc4ccccc4O3)C2)C1=O :: false (0)
COc1cccc2c1C(=O)N([C@H]1CCCN(C[C@H]3COc4ccccc4O3)C1)C2=O :: true (1)
C[C@@H]1NC(=O)N([C@H]2CCCN(C[C@H]3COc4ccccc4O3)C2)C1=O :: true (1)
CC1(C)CC(=O)N([C@H]2CCCN(C[C@H]3COc4ccccc4O3)C2)C1 :: true (1)
O=C1c2ccncc2CN1[C@H]1CCCN(C[C@H]2COc3ccccc3O2)C1 :: false (0)
O=C1c2cccc(Cl)c2C(=O)N1[C@H]1CCCN(C[C@H]2COc3ccccc3O2)C1 [example 64, hydrochloride] :: false (0)
CC1=CC(=O)N([C@H]2CCCN(C[C@H]3COc4ccccc4O3)C2)C1 :: false (0)
O=C1C2=C(CCCC2)C(=O)N1[C@H]1CCCN(C[C@H]2COc3ccccc3O2)C1 [example 94, hydrochloride] :: true (1)
Cc1nc2cc(F)c(F)cc2n1[C@H]1CCCN(C[C@H]2COc3ccccc3O2)C1 :: false (0)
O=C1CC(c2ccccc2)CN1[C@H]1CCCN(C[C@H]2COc3ccccc3O2)C1 (stereo partly drawn) :: true (1)
CCC1(CC)OC(=O)N([C@H]2CCCN(C[C@H]3COc4ccccc4O3)C2)C1=O :: true (1)
O=C1c2ncsc2CN1[C@H]1CCCN(C[C@H]2COc3ccccc3O2)C1 :: false (0)
O=C1C(c2ccccc2)CCN1[C@H]1CCCN(C[C@H]2COc3ccccc3O2)C1 (stereo partly drawn) :: false (0)
CC(=O)NCc1ccc2c(c1)CN([C@H]1CCCN(C[C@H]3COc4ccccc4O3)C1)C2=O :: true (1)
C[C@H]1NC(=O)N([C@H]2CCCN(C[C@H]3COc4ccccc4O3)C2)C1=O :: true (1)
COc1ccc2nc(C)n([C@H]3CCCN(C[C@H]4COc5ccccc5O4)C3)c2n1 :: false (0)
Fc1ccc2ncn([C@H]3CCCN(C[C@H]4COc5ccccc5O4)C3)c2c1 :: true (1)
